Target: plasma purified human complement protein C3 (human) (UniProt P01024)
Sequence (P01024 23-667, chain 1 of 2): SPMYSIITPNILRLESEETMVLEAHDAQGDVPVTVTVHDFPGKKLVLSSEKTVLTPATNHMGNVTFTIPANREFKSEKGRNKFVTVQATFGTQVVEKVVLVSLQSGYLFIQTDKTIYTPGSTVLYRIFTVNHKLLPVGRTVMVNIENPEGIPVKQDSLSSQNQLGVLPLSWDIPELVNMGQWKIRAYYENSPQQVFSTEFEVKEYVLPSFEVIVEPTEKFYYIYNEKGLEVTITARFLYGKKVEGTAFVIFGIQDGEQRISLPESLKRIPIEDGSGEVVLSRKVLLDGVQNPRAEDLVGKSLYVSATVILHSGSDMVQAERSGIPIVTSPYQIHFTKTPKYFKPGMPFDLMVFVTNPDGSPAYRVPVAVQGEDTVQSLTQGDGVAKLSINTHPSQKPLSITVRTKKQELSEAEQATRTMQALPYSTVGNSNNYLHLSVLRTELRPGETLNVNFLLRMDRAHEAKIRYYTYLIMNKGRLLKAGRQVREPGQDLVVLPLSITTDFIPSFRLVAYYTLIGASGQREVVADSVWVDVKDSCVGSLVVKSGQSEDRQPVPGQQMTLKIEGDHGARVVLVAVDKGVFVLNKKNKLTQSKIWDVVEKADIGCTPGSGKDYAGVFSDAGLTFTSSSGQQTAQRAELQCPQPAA
Sequence (P01024 672-1663, chain 2 of 2): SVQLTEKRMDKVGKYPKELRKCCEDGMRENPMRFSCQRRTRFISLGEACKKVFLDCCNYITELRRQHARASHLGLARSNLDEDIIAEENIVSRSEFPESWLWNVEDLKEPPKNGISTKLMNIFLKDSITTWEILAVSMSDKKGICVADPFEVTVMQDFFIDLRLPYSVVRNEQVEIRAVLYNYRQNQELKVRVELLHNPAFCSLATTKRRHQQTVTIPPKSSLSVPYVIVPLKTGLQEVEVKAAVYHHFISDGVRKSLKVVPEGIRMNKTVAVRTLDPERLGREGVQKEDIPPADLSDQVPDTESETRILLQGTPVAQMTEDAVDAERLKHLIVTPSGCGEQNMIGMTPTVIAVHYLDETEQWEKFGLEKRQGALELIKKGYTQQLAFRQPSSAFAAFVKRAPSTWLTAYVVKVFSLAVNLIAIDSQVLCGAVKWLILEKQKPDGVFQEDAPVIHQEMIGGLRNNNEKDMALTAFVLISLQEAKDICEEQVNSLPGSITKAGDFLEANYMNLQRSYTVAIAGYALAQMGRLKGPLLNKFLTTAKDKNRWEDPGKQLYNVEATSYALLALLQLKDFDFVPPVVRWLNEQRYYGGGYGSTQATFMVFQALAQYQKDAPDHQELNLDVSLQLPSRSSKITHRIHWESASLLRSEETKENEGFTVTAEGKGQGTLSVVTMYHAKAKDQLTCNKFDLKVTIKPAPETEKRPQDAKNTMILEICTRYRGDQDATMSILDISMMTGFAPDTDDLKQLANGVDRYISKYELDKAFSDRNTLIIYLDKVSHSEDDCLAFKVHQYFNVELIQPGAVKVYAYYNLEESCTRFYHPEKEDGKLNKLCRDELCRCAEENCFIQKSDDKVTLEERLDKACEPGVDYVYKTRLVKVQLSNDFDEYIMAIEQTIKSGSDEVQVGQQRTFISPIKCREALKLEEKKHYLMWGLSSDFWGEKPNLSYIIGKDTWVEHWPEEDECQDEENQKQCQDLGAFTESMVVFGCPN
Assay: cell-based or functional assay
parameter measured: EC50 of hC3 cleavage (nM)
Report the value in nM with no unit label.

MTSP-1 ins97aV/F97D/T98P/F99L/C122S/G151N/Q175L/Q192G (enzyme) VVGGTDADEGEWPWQVSLHALGQGHICGASLISPNWLVSAAHCYIDDRGFRYSDPTQWTAFLGLHDQSQRSAPGVQERRLKRIISHPFFNDDVPLDYDIALLELEKPAEYSSMVRPISLPDASHVFPAGKAIWVTGWGHTQYGGTNALILQKGEIRVINQTTCENLLPQLITPRMMCVGFLSGGVDSCGGDSGGPLSSVEADGRIFQAGVVSWGDGCAQRNKPGVYTRLPLFRDWIKENTGV | 38.5

Given item MTSP-1 Q38E/H40R/I41H/D60bN/F60eT/F97D/F99L/C122S/Q175L/Q192G (enzyme) VVGGTDADEGEWPWQVSLHALGEGRHCGASLISPNWLVSAAHCYIDNRGTRYSDPTQWTAFLGLHDQSQRSAPGVQERRLKRIISHPFFNDDTLDYDIALLELEKPAEYSSMVRPISLPDASHVFPAGKAIWVTGWGHTQYGGTGALILQKGEIRVINQTTCENLLPQLITPRMMCVGFLSGGVDSCGGDSGGPLSSVEADGRIFQAGVVSWGDGCAQRNKPGVYTRLPLFRDWIKENTGV , the value recorded as its EC50 of hC3 cleavage is 9.42
